Form field: viability, T/C (one value per entry).
Test system: SUM149PT spheroids with HUVEC/MSC, viability
Assay: Anticancer human tumor SUM149PT cell line growth inhibition [GQUAD];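 also: spheroids exposed to drugs for seven days before readout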;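 as to viability, T/C: percent viability relative to DMSO vehicle control taken as 100%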
Settings: second compound 1 µM; first compound 3.16 µM; stronger effect = lower value
Please reply with the bare figure in % and do not write the unit itself.

compound="CC1COCCN1c1cc(C2(S(C)(=N)=O)CC2)nc(-c2ccnc3[nH]ccc23)n1 (stereo not given) + CN(C)c1ccc(Nc2c3ccc(NC(=O)CCN4CCCC4)cc3nc3cc(NC(=O)CCN4CCCC4)ccc23)cc1" outcome_measure="viability, T/C" unit_tag=% observed=41.1

Quick check: viability, T/C of Cc1cccc(N(C)C(=O)C2C(O)CCN2c2nc(C)cc(C(F)(F)F)c2C#N)c1 (stereo not given) + CN(C)c1ccc(Nc2c3ccc(NC(=O)CCN4CCCC4)cc3nc3cc(NC(=O)CCN4CCCC4)ccc23)cc1 ?
84.9

Quick check: viability, T/C of O=C(c1cc(Cc2n[nH]c(=O)c3ccccc23)ccc1F)N1CCN(C(=O)C2CC2)CC1 + Cc1[nH]c2ccc(F)cc2c1-c1nc2c3cccnc3c3ncccc3c2[nH]1 ?
100

* * *

Test system: SUM149PT spheroids with HUVEC/MSC, viability
Test: Anticancer human tumor SUM149PT cell line growth inhibition [GQUAD];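 also: spheroids exposed to drugs for seven days before readout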;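 as to viability, T/C: percent viability relative to DMSO vehicle control taken as 100%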
Conditions: second compound 0.1 µM; first compound 3.16 µM; stronger effect = lower value
outcome measure: viability, T/C (%)
Please reply with the bare figure in % and do not write the unit itself.

Below, 3 compounds whose answers are already recorded.
compound="CCCS(=O)(=O)Nc1ccc(F)c(C(=O)c2c[nH]c3ncc(-c4ccc(Cl)cc4)cc23)c1F + CN(C)c1ccc(Nc2c3ccc(NC(=O)CCN4CCCC4)cc3nc3cc(NC(=O)CCN4CCCC4)ccc23)cc1" unit_tag=% observed=76.3
compound="COc1cccc2c1C(=O)c1c(O)c3c(c(O)c1C2=O)CC(O)(C(=O)CO)CC3OC1CC(N)C(O)C(C)O1 (configuration not stated) + CN(C)c1ccc(Nc2c3ccc(NC(=O)CCN4CCCC4)cc3nc3cc(NC(=O)CCN4CCCC4)ccc23)cc1" unit_tag=% observed=2.62
compound="C=CC(=O)N1CCN(c2nc(=O)n(-c3c(C)ccnc3C(C)C)c3nc(-c4c(O)cccc4F)c(F)cc23)C(C)C1 (configuration not stated) + Cc1cnc(CNC(=O)c2c(=O)c3ccc(N4CCCN(C)CC4)nc3n3c2sc2ccccc23)cn1" unit_tag=% observed=85.4

Quick check: viability, T/C of CC1COCCN1c1cc(C2(S(C)(=N)=O)CC2)nc(-c2ccnc3[nH]ccc23)n1 (configuration not stated) + CN(C)c1ccc(Nc2c3ccc(NC(=O)CCN4CCCC4)cc3nc3cc(NC(=O)CCN4CCCC4)ccc23)cc1 ?
44.7

Quick check: viability, T/C of CC(C)n1c(=O)n(C)c2cnc3cc(F)c(-c4ccc(OCCCN5CCCCC5)nc4)cc3c21 + Cc1[nH]c2ccc(F)cc2c1-c1nc2c3cccnc3c3ncccc3c2[nH]1 ?
98.5

Quick check: viability, T/C of O=C(NO)c1cnc(N2CCN(S(=O)(=O)c3ccc4ccccc4c3)CC2)nc1 + Cc1[nH]c2ccc(F)cc2c1-c1nc2c3cccnc3c3ncccc3c2[nH]1 ?
0.18

Quick check: viability, T/C of CC(C)n1c(=O)n(C)c2cnc3cc(F)c(-c4ccc(OCCCN5CCCCC5)nc4)cc3c21 + Cc1cnc(CNC(=O)c2c(=O)c3ccc(N4CCCN(C)CC4)nc3n3c2sc2ccccc23)cn1 ?
64.7

* * *

Test system: SUM149PT spheroids with HUVEC/MSC, viability
Test: Anticancer human tumor SUM149PT cell line growth inhibition [GQUAD];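 also: spheroids exposed to drugs for seven days before readout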
Settings: curve of first compound; second compound 0.316 µM
outcome measure: IC50

Below, 6 compounds whose answers are already recorded.
compound="Cn1ncnc1[C@H]1c2n[nH]c(=O)c3cc(F)cc(c23)N[C@@H]1c1ccc(F)cc1 + CN(C)c1ccc(Nc2c3ccc(NC(=O)CCN4CCCC4)cc3nc3cc(NC(=O)CCN4CCCC4)ccc23)cc1" assayed_target="SUM149PT spheroids with HUVEC/MSC, viability" observed="> 316 nM"
compound="C=CCn1c(=O)c2cnc(Nc3ccc(N4CCN(C)CC4)cc3)nc2n1-c1cccc(C(C)(C)O)n1 + Cc1cnc(CNC(=O)c2c(=O)c3ccc(N4CCCN(C)CC4)nc3n3c2sc2ccccc23)cn1" assayed_target="SUM149PT spheroids with HUVEC/MSC, viability" observed="< 31.6 nM"
compound="CC(C)n1c(=O)n(C)c2cnc3cc(F)c(-c4ccc(OCCCN5CCCCC5)nc4)cc3c21 + CN(C)c1ccc(Nc2c3ccc(NC(=O)CCN4CCCC4)cc3nc3cc(NC(=O)CCN4CCCC4)ccc23)cc1" assayed_target="SUM149PT spheroids with HUVEC/MSC, viability" observed="> 10000 nM"
compound="CC(=O)O[C@H]1C(=O)[C@@]2(C)[C@H]([C@H](OC(=O)c3ccccc3)[C@]3(O)C[C@H](OC(=O)[C@H](O)[C@@H](NC(=O)c4ccccc4)c4ccccc4)C(C)=C1C3(C)C)[C@]1(OC(C)=O)CO[C@@H]1C[C@@H]2O + Cc1cnc(CNC(=O)c2c(=O)c3ccc(N4CCCN(C)CC4)nc3n3c2sc2ccccc23)cn1" assayed_target="SUM149PT spheroids with HUVEC/MSC, viability" observed="< 31.6 nM"
compound="O=c1[nH]cc(F)c(=O)[nH]1 + Cc1[nH]c2ccc(F)cc2c1-c1nc2c3cccnc3c3ncccc3c2[nH]1" assayed_target="SUM149PT spheroids with HUVEC/MSC, viability" observed="> 10000 nM"
compound="CC1COCCN1c1cc(C2(O)CC3CCC(C2)O3)c2cnn(-c3ccn[nH]3)c2n1 (configuration not stated) + Cc1cnc(CNC(=O)c2c(=O)c3ccc(N4CCCN(C)CC4)nc3n3c2sc2ccccc23)cn1" assayed_target="SUM149PT spheroids with HUVEC/MSC, viability" observed="< 31.6 nM"

The record that follows has no IC50 shown yet.
Quick check: IC50 of C=CC(=O)N1CCN(c2nc(=O)n(-c3c(C)ccnc3C(C)C)c3nc(-c4c(O)cccc4F)c(F)cc23)C(C)C1 (configuration not stated) + Cc1[nH]c2ccc(F)cc2c1-c1nc2c3cccnc3c3ncccc3c2[nH]1 ?
> 10000 nM

* * *

System: SUM149PT spheroids with HUVEC/MSC, viability
Test: Anticancer human tumor SUM149PT cell line growth inhibition [GQUAD];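 also: spheroids exposed to drugs for seven days before readout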;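 as to viability, T/C: percent viability relative to DMSO vehicle control taken as 100%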
Conditions: second compound 0.1 µM; first compound 0.0316 µM; stronger effect = lower value
Form field: viability, T/C (one value per entry).

molecule="CC1COCCN1c1cc(C2(S(C)(=N)=O)CC2)nc(-c2ccnc3[nH]ccc23)n1 (stereo not drawn) + Cc1[nH]c2ccc(F)cc2c1-c1nc2c3cccnc3c3ncccc3c2[nH]1" outcome_measure="viability, T/C" observed=112%
molecule="CC1COCCN1c1cc(C2(S(C)(=N)=O)CC2)nc(-c2ccnc3[nH]ccc23)n1 (stereo not drawn) + CN(C)c1ccc(Nc2c3ccc(NC(=O)CCN4CCCC4)cc3nc3cc(NC(=O)CCN4CCCC4)ccc23)cc1" outcome_measure="viability, T/C" observed=97.8%
molecule="CC(C)n1c(=O)n(C)c2cnc3cc(F)c(-c4ccc(OCCCN5CCCCC5)nc4)cc3c21 + CN(C)c1ccc(Nc2c3ccc(NC(=O)CCN4CCCC4)cc3nc3cc(NC(=O)CCN4CCCC4)ccc23)cc1" outcome_measure="viability, T/C" observed=98.6%
molecule="CC(C)(O)C1CCC(Nc2ccc3ncc(-c4cccc(C(F)(F)F)c4)n3n2)CC1 (stereo not drawn) + Cc1cnc(CNC(=O)c2c(=O)c3ccc(N4CCCN(C)CC4)nc3n3c2sc2ccccc23)cn1" outcome_measure="viability, T/C" observed=57.3%
molecule="O=C(NO)c1cnc(N2CCN(S(=O)(=O)c3ccc4ccccc4c3)CC2)nc1 + CN(C)c1ccc(Nc2c3ccc(NC(=O)CCN4CCCC4)cc3nc3cc(NC(=O)CCN4CCCC4)ccc23)cc1" outcome_measure="viability, T/C" observed=116%

Quick check: viability, T/C of CCc1c2c(nc3ccc(O)cc13)-c1cc3c(c(=O)n1C2)COC(=O)[C@]3(O)CC + CN(C)c1ccc(Nc2c3ccc(NC(=O)CCN4CCCC4)cc3nc3cc(NC(=O)CCN4CCCC4)ccc23)cc1 ?
48.1%

Quick check: viability, T/C of Cn1ncnc1[C@H]1c2n[nH]c(=O)c3cc(F)cc(c23)N[C@@H]1c1ccc(F)cc1 + Cc1[nH]c2ccc(F)cc2c1-c1nc2c3cccnc3c3ncccc3c2[nH]1 ?
86.9%

Quick check: viability, T/C of O=C(c1cc(Cc2n[nH]c(=O)c3ccccc23)ccc1F)N1CCN(C(=O)C2CC2)CC1 + Cc1[nH]c2ccc(F)cc2c1-c1nc2c3cccnc3c3ncccc3c2[nH]1 ?
102%

Quick check: viability, T/C of CC(C)n1c(=O)n(C)c2cnc3cc(F)c(-c4ccc(OCCCN5CCCCC5)nc4)cc3c21 + Cc1cnc(CNC(=O)c2c(=O)c3ccc(N4CCCN(C)CC4)nc3n3c2sc2ccccc23)cn1 ?
55%

Quick check: viability, T/C of Cn1ncnc1[C@H]1c2n[nH]c(=O)c3cc(F)cc(c23)N[C@@H]1c1ccc(F)cc1 + Cc1cnc(CNC(=O)c2c(=O)c3ccc(N4CCCN(C)CC4)nc3n3c2sc2ccccc23)cn1 ?
52.2%

Quick check: viability, T/C of CC[C@@]1(O)C(=O)OCc2c1cc1n(c2=O)Cc2cc3c(CN(C)C)c(O)ccc3nc2-1 + Cc1[nH]c2ccc(F)cc2c1-c1nc2c3cccnc3c3ncccc3c2[nH]1 ?
87.3%

Quick check: viability, T/C of C=CC(=O)N1CCN(c2nc(=O)n(-c3c(C)ccnc3C(C)C)c3nc(-c4c(O)cccc4F)c(F)cc23)C(C)C1 (stereo not drawn) + Cc1[nH]c2ccc(F)cc2c1-c1nc2c3cccnc3c3ncccc3c2[nH]1 ?
116%

Quick check: viability, T/C of C#Cc1c(F)ccc2cc(O)cc(-c3ncc4c(N5CC6CCC(C5)N6)nc(OCC56CCCN5CC(F)C6)nc4c3F)c12 (stereo not drawn) + Cc1cnc(CNC(=O)c2c(=O)c3ccc(N4CCCN(C)CC4)nc3n3c2sc2ccccc23)cn1 ?
51.6%
